Recorded values, source patent US8410097B2.

- TGT: CB1 cannabinoid receptor (Rattus norvegicus)
- Construct: membranes were prepared from rat forebrain membranes; from tissue; host or cells: rat forebrain membranes
- Sequence (P20272 whole entry): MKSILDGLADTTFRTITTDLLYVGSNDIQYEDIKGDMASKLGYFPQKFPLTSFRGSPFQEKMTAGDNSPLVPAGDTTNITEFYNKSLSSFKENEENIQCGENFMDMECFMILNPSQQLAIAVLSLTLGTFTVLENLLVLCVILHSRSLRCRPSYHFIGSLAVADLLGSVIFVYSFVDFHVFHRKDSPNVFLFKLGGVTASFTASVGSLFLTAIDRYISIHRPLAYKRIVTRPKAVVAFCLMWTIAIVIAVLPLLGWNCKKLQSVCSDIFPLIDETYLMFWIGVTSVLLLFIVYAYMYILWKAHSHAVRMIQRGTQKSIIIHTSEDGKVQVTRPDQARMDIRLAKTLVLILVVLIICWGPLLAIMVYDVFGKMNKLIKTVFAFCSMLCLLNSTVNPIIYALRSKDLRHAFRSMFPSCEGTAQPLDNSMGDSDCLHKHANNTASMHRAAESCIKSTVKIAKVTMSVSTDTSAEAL
- PROTOCOL DETAILS: biochemical
- Format: binding
- ASSAY CONDITIONS: CB1 Ki, Table 6; rat forebrain membranes, 0.8 nM [3H] CP-55,940
Hi! Just check whether Ki is below 7 nM. Below gives Fulfilled, equal or above gives Not fulfilled.

- CHEMICAL STRUCTURE: "Cc1c(C(=O)N(C)C2CCCCC2)nc(-c2ccc(Cl)cc2Cl)n1-c1ccc(-c2nnn(C)n2)cc1"
  DISCRETE LABEL: "Not fulfilled"
- CHEMICAL STRUCTURE: "Cc1c(C(=O)NN2CCCCC2)nc(-c2ccc(Cl)cc2Cl)n1-c1ccc(C#CCCO)cc1"
  DISCRETE LABEL: "Fulfilled"
- CHEMICAL STRUCTURE: "CN(C(=O)Nc1nc(-c2ccc(Cl)cc2Cl)n(-c2ccc(Br)cc2)c1CO)C1CCCCC1"
  DISCRETE LABEL: "Not fulfilled"
